- tested.target: human IFN-ω (human, UniProt P05000 24-195)
- protocol: cell-based or functional assay
endpoint.name: IC50 (pM), ISRE assay
Record the value in pM, omitting the unit from your answer.

Here is how some binders turned out for IC50 (pM), ISRE assay.
>  <binder>
IFWM3400 (antibody, IgG1, V domains shown) VH: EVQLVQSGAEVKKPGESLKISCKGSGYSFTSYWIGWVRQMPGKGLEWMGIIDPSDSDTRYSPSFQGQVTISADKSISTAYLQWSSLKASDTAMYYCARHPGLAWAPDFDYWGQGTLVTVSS VL: DIQMTQSPSSLSASVGDRVTITCRASQSIADFLNWYQQKPGKAPKLLIYFASSLQSGVPSRFSGSGSGTDFTLTISSLQPEDFATYYCQQSHSFPLTFGQGTKVEIK

>  <IC50 (pM), ISRE assay>
29

$$$$
>  <binder>
IFWM3308 (antibody, IgG1, V domains shown) VH: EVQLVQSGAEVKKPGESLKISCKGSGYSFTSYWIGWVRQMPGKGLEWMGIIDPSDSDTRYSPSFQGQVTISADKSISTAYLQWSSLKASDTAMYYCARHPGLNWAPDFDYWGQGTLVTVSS VL: DIQMTQSPSSLSASVGDRVTITCRASQSIAEFLNWYQQKPGKAPKLLIYFASSLQSGVPSRFSGSGSGTDFTLTISSLQPEDFATYYCQQSIDFPLTFGQGTKVEIK

>  <IC50 (pM), ISRE assay>
40

$$$$
>  <binder>
IFWM3314 (antibody, IgG1, V domains shown) VH: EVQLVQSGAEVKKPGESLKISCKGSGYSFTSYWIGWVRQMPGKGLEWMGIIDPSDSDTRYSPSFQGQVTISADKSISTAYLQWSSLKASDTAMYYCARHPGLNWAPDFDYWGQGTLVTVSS VL: DIQMTQSPSSLSASVGDRVTITCRASQSIDRALNWYQQKPGKAPKLLIYFASSLQSGVPSRFSGSGSGTDFTLTISSLQPEDFATYYCQQSFDFPLTFGQGTKVEIK

>  <IC50 (pM), ISRE assay>
32

$$$$
>  <binder>
IFWM3332 (antibody, IgG1, V domains shown) VH: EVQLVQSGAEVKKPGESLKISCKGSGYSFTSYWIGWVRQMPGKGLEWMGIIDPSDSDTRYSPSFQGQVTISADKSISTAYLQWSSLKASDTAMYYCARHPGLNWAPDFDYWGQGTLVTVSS VL: DIQMTQSPSSLSASVGDRVTITCRASQSIANTNLNWYQQKPGKAPKLLIHWASSLQSGVPSRFSGSGSGTDFTLTISSLQPEDFATYYCQQWYDNPLTFGQGTKVEIK

>  <IC50 (pM), ISRE assay>
228

$$$$

Query string: // returns reported IC50 (pM), ISRE assay for input IFWM3405 (antibody, IgG1, V domains shown) VH: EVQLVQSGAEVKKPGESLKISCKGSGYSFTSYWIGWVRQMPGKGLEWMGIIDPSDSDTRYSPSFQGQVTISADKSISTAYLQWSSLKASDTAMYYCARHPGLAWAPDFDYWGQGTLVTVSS VL: DIQMTQSPSSLSASVGDRVTITCRASQSIANNNLNWYQQKPGKAPKLLIHWASSLQSGVPSRFSGSGSGTDFTLTISSLQPEDFATYYCQQGYDTPFTFGQGTKVEIK
Result string: 19
